Just for reference, PubChem BioAssay (NCI) is where these values come from.

- System: UO-31 renal
- TEST_METHOD_NOTES: NCI tumour cell line growth inhibition, 48 h
The compounds listed here are annotated with their TGI.

Example compounds with recorded TGI:
| COMPOUND | TGI |
| --- | --- |
| O=C1/C(=C/c2ccc(Cl)cc2)COc2ccc(O)c(O)c21 | 1.84 µM |
| C/C1=C\CC/C(C)=C/C=C(/C(C)C)CC/C(C(=O)O)=C/CC1 | > 100 µM |
| COc1ccc2c(c1)N=C1CSC(c3c(Cl)cccc3[N+](=O)[O-])N1C2 (configuration not stated) | > 100 µM |
| COc1cccc(C[C@H]2COC(=O)[C@]2(O)Cc2cccc(OC)c2)c1 | > 100 µM |
| O=C(/C=C/c1ccc(C(F)(F)F)cc1)c1ccc(Nc2nc(NCCO)nc(N3CCOCC3)n2)cc1 | 2.58 µM |
| COC(=O)C(CC(=O)Nc1ccc(Cl)c(Cl)c1)C(=O)C(=O)NC1C2CC3CC(C2)CC1C3 (configuration not stated) | > 100 µM |

In one line, give reported TGI of the entry Cc1ccc(S(=O)(=O)NC2=NS(=O)(=O)c3cc(C)c(Cl)cc3S2)cc1 . > 100 µM

---

- Test system: MCF7 breast
- TEST_METHOD_NOTES: NCI tumour cell line growth inhibition, 48 h; in the data active = GI50 below about 0.43 µM; inactive = the rest
Output constraint: value belongs to active, inactive

Known results for compounds:
| COMPOUND | CAT |
| --- | --- |
| COc1ccc(/C=C/C(=O)c2cc3c(N)c(C(=O)Nc4ccccc4)sc3nc2C)cc1 | active |
| CC(C)C[C@@H]1NC(=O)[C@@H]2CCCN2C(=O)[C@@H]2CCCN2C(=O)[C@H](CC(C)C)NC(=O)[C@H](CO)NC(=O)[C@H](CCCCN)NC(=O)[C@H]([C@H](C)O)NC(=O)[C@@H]2CCCC[C@@H](NC1=O)C(=O)N[C@@H](Cc1ccccc1)C(=O)N1CCC[C@H]1C(=O)N[C@@H](CC(=O)O)C(=O)NCC(=O)N[C@@H](CCCN=C(N)N)C(=O)N2 | inactive |
| COc1ccc2nc(C)cc(Nc3ccccc3O)c2c1 | inactive |
| COC(=O)[C@@]1(O)C[C@H]2O[C@]1(C)n1c3ccccc3c3c4c(c5c6ccccc6n2c5c31)C(=O)NC4 | active |
| COc1cccc2c(=O)c3c(sc12)c(NCCN(C)C)nc1ccccc13 | inactive |

What outcome does the record of this test show for Cc1nn(-c2nc3ccccc3[nH]2)c2c1C(c1ccc3c(c1)OCO3)CC(=O)N2 (configuration not stated) ? inactive

What outcome does the record of this test show for COc1cc(/C=C/C(=O)c2c(C)n([O-])c3ccc(Cl)cc3[n+]2=O)cc(OC)c1OC ? inactive

---

- System: 786-0 renal
- TEST_METHOD_NOTES: NCI tumour cell line growth inhibition, 48 h
OBSERVED_PROPERTY: TGI (µM)
The reply should contain only the number, in µM.

| MOLECULAR_STRING | UNITS_OF_MEASURE | MEASURED |
| --- | --- | --- |
| c1ccc2c3c([nH]c2c1)C1(CCCCC1)c1c([nH]c2ccccc12)C31CCCCC1 | µM | 32.2 |
| CCN(CC)CCC(=O)c1ccc(Oc2ccccc2)cc1 | µM | 29.3 |
| COC(=O)/C(=C\c1cn(C(C)=O)c2ccccc12)P(=O)(OC)OC | µM | 46.3 |
| COC(=O)c1cc2oc(/C=C3\SC(=S)N(NC(C)=O)C3=O)cc2n1Cc1ccccc1 | µM | 18.6 |

# input for lookup
In one line, give reported TGI of the entry O=C(NCCN1CCCC1)c1cn2c(ccc3sc4ccccc4c(=O)c32)n1 . 2.78
